target: ERK1 (Homo sapiens, UniProt P27361)
Sequence (P27361 whole entry): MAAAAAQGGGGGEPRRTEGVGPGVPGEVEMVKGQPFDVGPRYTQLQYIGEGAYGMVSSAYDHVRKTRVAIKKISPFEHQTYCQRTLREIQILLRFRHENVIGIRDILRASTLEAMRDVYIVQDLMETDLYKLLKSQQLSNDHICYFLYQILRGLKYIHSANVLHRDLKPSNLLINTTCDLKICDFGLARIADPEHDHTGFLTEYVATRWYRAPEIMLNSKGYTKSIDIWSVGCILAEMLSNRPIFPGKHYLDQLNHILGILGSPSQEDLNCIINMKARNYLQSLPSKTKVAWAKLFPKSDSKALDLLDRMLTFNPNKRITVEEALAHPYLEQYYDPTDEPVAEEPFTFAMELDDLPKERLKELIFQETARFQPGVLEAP
Measure name: IC50

Dear colleague, I am looking for the recorded IC50 of the following compound: "C=CC(=O)Nc1cc(C)ccc1Nc1nc(Nc2cc(OC)ncc2C)ncc1C(F)(F)F"
10 to 20 nM

* * *

system: MV4-11 (MLL-AF4); assay: Combination proliferation study with Compound A2 (ATP/CellTiter-Glo, Chou-Talalay combination index); type: cell-based, human; conditions: 7 Day Cotreatment
Measure name: Combination of Compound A2 and anti-cancer agent, MV4-11

N[C@@H]1C[C@H]1c1ccccc1 (racemic) :: synergy
CC(C)(C)c1cc(NC(=O)Nc2ccc(-c3cn4c(n3)sc3cc(OCCN5CCOCC5)ccc34)cc2)no1 :: synergy
CC1(C)CCC(c2ccc(Cl)cc2)=C(CN2CCN(c3ccc(C(=O)NS(=O)(=O)c4ccc(N[C@H](CCN5CCOCC5)CSc5ccccc5)c(S(=O)(=O)C(F)(F)F)c4)cc3)CC2)C1 :: synergy

Origin of the recorded values: patent US20200030355A1
